Known TGI of a selection of compounds
Test system: SW-620 colon
ASSAY COMMENT: NCI tumour cell line growth inhibition, 48 h
EXPERIMENTAL READOUT: TGI (µM)

• O=C(CCc1nnc2s/c(=C\c3ccccc3)c(=O)n12)Nc1cc(Cl)ccc1Cl = 23.7
• Oc1c(C(O)(c2ccccc2)c2ccc3ccccc3c2O)ccc2ccccc12 = 41.8
• N/C(=N\O)c1ncc(-c2ccc(C(F)(F)F)cc2)c(NC2CCCCCC2)n1 = 15.4
• Cc1cccc2c1Oc1cc(Cl)ccc1C2NC(=O)CCN1CCCCC1 (stereo unspecified) = 34.9
• N=C(N)n1ncc(Cl)c(Cl)c1=O = 3.75

---

Tested on: DU-145 prostate
Outcome codes: Yes (active), No (inactive)

- Cc1cccc(CN(C)c2ccc(CO)c(Cl)c2)c1: No
- CCCc1cc(=O)oc2c(C(=O)CC(C)C)c(O)c(CC=C(C)C)c(O)c12: No
- N#Cc1ccc(Oc2nccc(-c3c(-c4ccc(F)cc4)ncn3C3CCNCC3)n2)cc1: No
- COc1cccc(Nc2nc(NNC(=O)Cc3ccccc3)nc(NNC(=O)c3ccncc3)n2)c1: No
- CCOP(=O)(CCP(=O)(OCC)OCC)OCC.C[CH2][Sn]([Cl])([Cl])[CH2]C: No
- COc1ccc(Nc2c3ccccc3nc3c2c2ccccc2n3C)cc1: No
- COC(=O)/C(C#N)=C\N1CCN(C(=O)c2ccco2)C1=S: No
- CC/C(=N\Nc1nc2ccccc2n1C)c1ccccn1: Yes
- CCCCCCN(CCCCCC)CCCNc1nccc2ccccc12: No
- CCN1CCC[C@H]1c1cc(O)c2c(c1OC)C[C@H]1C[C@H]3[C@H](N)C(=O)C(C(N)=O)=C(O)[C@@]3(O)C(=O)C1=C2O: Yes
- Cc1ccc(/C=C(\C#N)n2nnc3cc(Cl)c(Cl)cc32)cc1: No
- CCOc1ccc(Cc2nccc3cc(OCC)c(OCC)cc23)cc1OCC: No

---

System: OVCAR-8 ovarian
Outcome codes: 1 (active), -1 (inactive)

• COc1cc2c(cc1OCCCCNC(=O)c1cc3ccccc3[nH]1)N=CC1CCCN1C2=O (stereo not given) = -1
• Fc1ccc(-c2nc(-c3nc4ccc(Cl)cc4[nH]3)cc3c2[nH]c2ccccc23)cc1 = -1
• Cn1cc(-c2csc(-c3c[nH]c4ncccc34)n2)c2cc(Br)cnc21 = -1
• CCN1CCC[C@H]1c1cc(O)c2c(c1OC)C[C@H]1C[C@H]3[C@H](N)C(=O)C(C(N)=O)=C(O)[C@@]3(O)C(=O)C1=C2O = 1
• c1cncc(CNc2ccccc2-c2nnc(Nc3ccc4c(c3)OCO4)o2)c1 = 1

---

Tested on: NCI-H226 lung
ASSAY COMMENT: NCI tumour cell line growth inhibition, 48 h
EXPERIMENTAL READOUT: TGI (µM)

• COC1/C=C\C=C(/C)C(=O)NC2=CC(=O)C=C(C2=O)C(OC)C(C)CC(OC)C(OC)C(C)/C=C(/C)C1OC(N)=O (stereo not given) = 37
• CCc1cccc(C(C)CC)c1N=C(NC(=O)c1ccccc1C(=O)NC(=Nc1c(CC)cccc1C(C)CC)SC)SC (stereo not given) = 57.1
• N=C(N)n1ncc(Cl)c(Cl)c1=O = 18.3
• CCN1CCC[C@H]1c1cc(O)c2c(c1OC)C[C@H]1C[C@H]3[C@H](N)C(=O)C(C(N)=O)=C(O)[C@@]3(O)C(=O)C1=C2O = 3.96
• CC/C(=N\Nc1nc2ccccc2n1C)c1ccccn1 = 1.05
• CCN(CC)CCn1ncc2ccc3c(c(=O)c4cccnc4n3CCN(CC)CC)c21 = 5.44
• O=C1CCc2c3c(c4c([nH]c5ccccc54)c2CC1)C(=O)NC3=O = 23.7
• CN(C)CC(C(=O)c1ccccc1)c1ccccc1 (stereo not given) = 7.79
